# Experiment notes: Clearance in Sprague-Dawley rat at 10 mg/kg, iv measured upto 24 hrs by LC/MS/MS analysis
# Type: ADME, organism-based
# Assay conditions: in vivo
Measured property: clearance
Be sure to follow the number with its unit.

// recorded clearance for CCNC(=O)c1noc(-c2cc(-c3ccc(C)cc3)c(O)cc2O)c1-c1ccc(CN2CCOCC2)cc1 : 102 mL/min/kg

====

# Tested on: Candida albicans
# Experiment notes: Synergistic antifungal activity against fluconazole-resistant Candida albicans 901 assessed as inhibition of fungal growth in presence of fluconazole by checker board microdilution assay
# Format: functional
Measured property: MIC80

get_value(item= Cc1ccc(-c2cc(-c3onc(C(=O)N4CCC4)c3-c3ccc(CN4CCOCC4)cc3)c(O)cc2O)cc1 , readout=MIC80) returns 16 µg/mL

Just so you know, measured MIC80 for CCNC(=O)c1noc(-c2cc(-c3cccc(C(C)(C)C)c3)c(O)cc2O)c1-c1ccc(CN2CCOCC2)cc1 came out at > 64 µg/mL

MIC80 reading for CCNC(=O)c1noc(-c2cc(-c3ccc(C)cc3)c(O)cc2O)c1-c1ccc(CNC2CCOCC2)cc1 : > 64 µg/mL
